If the reported logP equals or exceeds 0.8, assign true. If not, assign false.

// below: answered molecules
molecule	assigned-class
COc1ccc(C=CC(=O)O)cc1	true
N#CCNc1ccccc1C(N)=O	false
CCC1(C(C)CC(C)O)C(=O)NC(=O)NC1=O (stereo not drawn)	false
O=CNc1cccc([N+](=O)[O-])c1	true
CN(C)c1ccc(S(N)(=O)=O)cc1	false

Determine whether this molecule has logP no lower than 0.8: CCOC(=O)C(=O)Nc1ccccc1
true

Now try CN(C)c1nc(N)nc(N(C)C)n1 .
true

Now try CN(C)C=C[N+](=O)[O-] .
false

###

measured-metric: logP
Numbers only.

CCCCNC(=O)n1c(NC(=O)OC)nc2ccccc21 2.12
NCCCCc1ccccn1 0.86
Cc1ccccn1 1.11

Parameters: items (list). Returns: logP for each item.
1. COc1cc(C(=O)O)ccc1O
2. CCCOc1cn[nH]c1
3. CC(C)Oc1ccccc1O
4. Nc1nc(=O)c2ccccc2o1

[1.43, 1.42, 2.09, 0.27]

Would you mind telling me what logP value was observed for Nc1ccc(S(=O)(=O)Nc2ncccn2)cc1 ?
-0.09

###

// bucketize logP: 1 = under 0.8, 2 = from 0.8 up to 2, 3 = 2 and over

// below: answered compounds
compound	assigned-class
CCC1C2CC3C4N(C)c5ccccc5C45CC(C2C5O)N3C1O (stereo not given)	2
Cc1nn(-c2ccccc2)c(C)c1N=O	3
CC12CCC(=O)C=C1CCC1C3CCC4(CCC(=O)O4)C3CCC12C (stereo not given)	3
NC(=O)c1ccc(C(F)(F)F)cc1	2
C=C(C=O)CC	2

Note: place this compound into its band. Item: CCC(=O)N(C)C
1

Now try c1cscn1 .
1

Now try COc1cccc(-c2cc3ccccn3c2)c1 .
3

Now try CCCNc1nc(NC(C)C)nc(SC(F)F)n1 .
3

Now try Cc1ccc2cccnc2c1 .
3

Now try CC(C)CCC(=O)c1ccoc1 .
3

Now try CCCCC1(CC)C(=O)NC(=O)NC1=O .
2

Now try Cc1ccc2[nH]c(=O)[nH]c(=O)c2c1 .
1

###

// bucketize logP: 0 = under 1, 1 = from 1 up to 3, 2 = 3 and over

molecule	assigned-class
C1CCCCCC1	2
O=[N+]([O-])c1ccc(C=Cc2ncc[nH]2)o1	1
CC(=O)OCc1ccc(C)cc1	1

Note: place this molecule into its band. Item: Cc1ccc([N+](=O)[O-])cc1
1

Now try Brc1c(Br)c(Br)c(Br)c(Br)c1Br .
2

###

Give measured logP for each item. Keep answers brief.
Answers are plain numbers.

Please review the following examples before continuing.
compound	measured-result
Nc1cccc(CO)c1	-0.05
CC(=O)N[C@@H](CO)C(=O)N[C@@H](Cc1ccccc1)C(N)=O	-0.79
CC(C)(C)C(N)Cc1ccccc1 (stereo unspecified)	2.91
Cc1cc(NC(N)=O)ccc1Br	2.49

Parameters: items (list). Returns: logP for each item.
1. O=[N+]([O-])c1ccc(C=NO)o1
2. O=C(O)c1c(F)cccc1Cl

[0.3, 2.11]

Parameters: items (list). Returns: logP for each item.
1. COc1cccc(C(=O)O)c1O
2. CN(C)P(=O)(N(C)C)N(C)C

1: 1.94; 2: 0.28

Parameters: items (list). Returns: logP for each item.
1. NC(=O)NC(=O)Cc1ccccc1
2. NC(=O)c1ccccc1C(N)=O
3. CCCOC(=O)c1ccccc1C(=O)OCCC

[0.87, -1.73, 3.27]
